# TEST SYSTEM: PDE10 (Homo sapiens, UniProt O76083, E580G)
# Construct: The entire open reading frame of the PDE10 cDNA (clone FB94a) was placed into a yeast ADH vector; made in house; host or cells: Saccharomyces cerevisiae strain BJ2-54 (no endogenous PDE activity); 100,000 x g supernatant of the lysate, not purified
# Sequence (O76083 1-466 isoform O76083-3 E453G): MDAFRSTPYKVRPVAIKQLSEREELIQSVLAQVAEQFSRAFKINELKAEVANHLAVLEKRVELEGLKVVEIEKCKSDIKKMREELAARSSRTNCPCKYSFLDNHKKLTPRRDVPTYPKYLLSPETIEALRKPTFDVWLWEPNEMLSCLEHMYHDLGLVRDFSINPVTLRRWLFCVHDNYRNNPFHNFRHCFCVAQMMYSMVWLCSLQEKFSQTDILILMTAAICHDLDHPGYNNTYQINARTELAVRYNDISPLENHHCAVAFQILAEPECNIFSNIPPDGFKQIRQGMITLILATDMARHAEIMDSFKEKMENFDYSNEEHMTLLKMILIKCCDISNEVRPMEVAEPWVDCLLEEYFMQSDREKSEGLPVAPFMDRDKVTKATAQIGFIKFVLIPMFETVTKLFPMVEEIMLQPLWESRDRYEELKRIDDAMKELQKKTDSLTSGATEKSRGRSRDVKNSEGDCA
# ASSAY TEXT: PDE10 inhibition by isozyme-specific PDE inhibitors, cAMP as substrate
# Assay type: biochemical
# APPLIED CONDITIONS: cAMP as substrate; recombinant PDE10 (clone FB94a) yeast extract
READOUT TYPE: IC50
I'd appreciate it if you wrote the number followed by its unit.

Query: Name the reported IC50 value associated with the compound CCCOc1ccc(NS(C)(=O)=O)cc1-c1nc2c(c(C)nn2C)c(=O)[nH]1
Reply: 9 µM
